Catalogue of growth inhibition values
experiment: NCI Yeast Anticancer Drug Screen. Data for the cln2 rad14 strain (AID 165);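 further: 0% = growth equal to vehicle treated cultures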; conditions: S. cerevisiae cln2 rad14 strain, at 5.0 µM (retest, dose inferred, filed as 0.5), active compounds read high
Compounds without any hit were thinned out: in the full panel of roughly 79,000, 15% have a hit.
READOUT: growth inhibition (%)

[[record]]
molecule = "Cn1cnc(C(=N)[Se])c1N"
data_value = 2

[[record]]
molecule = "O=C(O)c1ccc(NP(=O)(O)Oc2ccccc2)cc1 (tested in a mixture with another compound)"
data_value = -4

[[record]]
molecule = "CC(=O)OC1C(=O)OCC23CCC4(C)OC4C2OC2CC(OC(=O)/C=C/C=C/C(=O)OCCC1C)C3(C)C21CO1 (centres undefined)"
data_value = 98

[[record]]
molecule = "COC1C(C)OC(OC2CC(C)(O)Cc3cc4c(c(O)c32)C(=O)c2c(O)cc3c(c2C4=O)OC2OC3(C)C(O)C(N(C)C)C2O)C(OC)C1(C)OC (centres undefined)"
data_value = 58

[[record]]
molecule = "COc1cc(/C=C/c2ccc(OC)c(OC)c2)cc(OC)c1"
data_value = -4

[[record]]
molecule = "COc1cc2ccccc2c2cc([N+](=O)[O-])oc12"
data_value = 91

[[record]]
molecule = "ClC(C[n+]1ccccc1)c1ccccc1 (centres undefined)"
data_value = 4

[[record]]
molecule = "CCCCCCCCCCCC(=O)[O][Hg][c]1ccccc1"
data_value = 99

[[record]]
molecule = "N#C[S-].[Ce+3].c1ccc(-c2ccccn2)nc1.c1ccc(-c2ccccn2)nc1.c1ccc(-c2ccccn2)nc1"
data_value = 31

